Cited source for all entries: paper PMC11892870

Test: Cytotoxicity in differentiated SH-SY5Y cells, MTT
Type: cell-based
Details: human, differentiated SH-SY5Y neuroblastoma cells; 100 µM, SH-SY5Y, MTT, average of 5; read-out: %Cell viability (cytotoxicity)
Experimental: Neuroblastoma cells (SH-SY5Y) were maintained in humidified atmosphere at 37 °C with 5%CO2 in DMEM/F12 supplement with 10%FBS. Afterward, cells were treated for 6 days and replaced every 3 days with 1%FBS supplementation and 10 μM of retinoic acid. […] Cell viability was assessed using MTT assay. Absorbance at 570 nm was measured for both treated and untreated samples, with viability expressed as a percentage relative to the control.
Measured viability at 100 µM values are reported for all entries that follow.
MEASUREMENT_LABEL: viability at 100 µM (%)

[[record]]
compound = "COc1cc(O)c2c(=O)c(OC)c(-c3ccccc3)oc2c1 [F4, 5-hydroxy-3,7-dimethoxyflavone]"
test_result = 80.5

[[record]]
compound = "COc1cc(OC)c2c(=O)c(OC)c(-c3ccccc3)oc2c1"
test_result = 94

